Please go through the items and note down their GI50, drug alone.
- System: CAKI-1
- PROTOCOL: GI50, drug alone; higher = less potent
- SETUP CONDITIONS: treatment: drug alone; 5 days
Could you give me the number in µM? Just the number is fine.

Test item CCN1CCN(Cc2ccc(-c3cc4c(N[C@H](C)c5ccccc5)ncnc4[nH]3)cc2)CC1 ; CAKI-1; reported GI50, drug alone was 3.19

Test item C#Cc1cccc(Nc2ncnc3cc(OCCOC)c(OCCO)cc23)c1.Cl ; CAKI-1; reported GI50, drug alone was 3.01

###

Please go through the items and note down their minimum viability across doses.
- Test system: SN12C
- PROTOCOL: minimum viability across doses, drug + dasatinib, relative to DMSO (fraction); higher = less growth inhibition
- SETUP CONDITIONS: treatment: drug + dasatinib (fixed dose, not stated); 5 days

Test item Cc1ccc(NC(=O)c2ccc(CN3CCN(C)CC3)cc2)cc1Nc1nc(-c2cccnc2)cs1 [Masitinib (AB1010)] + Cc1nc(Nc2ncc(C(=O)Nc3c(C)cccc3Cl)s2)cc(N2CCN(CCO)CC2)n1 ; SN12C; reported minimum viability across doses was 0.484

Test item CCCCOc1c(C(=O)c2c(F)cc(C)cc2F)cnc2[nH]ncc12 + Cc1nc(Nc2ncc(C(=O)Nc3c(C)cccc3Cl)s2)cc(N2CCN(CCO)CC2)n1 ; SN12C; reported minimum viability across doses was 0.565

Test item O=C(O)c1ccc2c(c1)nc(Nc1cccc(Cl)c1)c1ccncc12 [cx-4945 (Silmitasertib)] + Cc1nc(Nc2ncc(C(=O)Nc3c(C)cccc3Cl)s2)cc(N2CCN(CCO)CC2)n1 ; SN12C; reported minimum viability across doses was 0.642
